Value source: patent US20260007681A1

assay: Cell growth assay (WST-8) (Compounds B1-B278); assay type: cell-based; details: 96 h; T47D cell line; WST-8, 4 days; read-out: Cell Growth Inhibition in T47D cell line IC50
pIC50: −log10 of the molar value.
Measured pIC50 accompanies every entry in the list below.

Past entries and their recorded results:
C[C@@H]1Cc2c([nH]c3ccccc23)[C@@H](c2c(F)cc(N3CCC4(CC3)CN(CC(=O)N3CCN5c6ccc7c(c6OC[C@H]5C3)CN(C3CCC(=O)NC3=O)C7=O)C4)cc2F)N1CC(F)F (some centres unmarked) [Compound B177]: > 9.00
C[C@@H]1Cc2c([nH]c3ccccc23)[C@@H](c2cnc(N3CC4(CCC(N5CCN6c7ccc8c(c7OC[C@H]6C5)CN(C5CCC(=O)NC5=O)C8=O)CC4)C3)nc2)N1CC(F)F (some centres unmarked) [Compound B156]: < 8.00
C[C@@H]1Cc2c([nH]c3ccccc23)[C@@H](c2cnc(N3CCC4(CC3)OCC(CN3CCN5c6ccc7c(c6OC[C@H]5C3)CN([C@H]3CCC(=O)NC3=O)C7=O)CO4)nc2)N1CC(F)(F)CO [Compound B272]: > 9.00

The recorded pIC50 for entry C[C@@H]1Cc2c([nH]c3ccccc23)[C@@H](c2cnc(N3CCC4(CC3)CC(CN3CCN5c6ccc7c(c6OC[C@H]5C3)CN(C3CCC(=O)NC3=O)C7=O)C4)nc2)N1CC(C)(C)F (some centres unmarked) [Compound B180] equals 8.00 to 9.00

The recorded pIC50 for entry COc1cc(N2CCC3(CC2)OCC(CN2CCN4c5ccc6c(c5OC[C@@H]4C2)CN([C@@H]2CCC(=O)NC2=O)C6=O)CO3)ccc1[C@@H]1c2[nH]c3ccccc3c2C[C@@H](C)N1CC(F)F [Compound B271] equals > 9.00

----------
molecular target: ER (Homo sapiens (Human)); experiment: In-cell western blot analysis of relative ER percentage (Compounds B1-B278); assay type: cell-based; settings: ER degradation, 16 hours, read-out: ICW DC50
Measured DC50 accompanies every entry in the list below.

Summary line: C[C@@H]1Cc2c([nH]c3ccccc23)[C@@H](c2cnc(N3CC[C@H](CCN4CCN5c6cc7c(cc6OC[C@@H]5C4)C(=O)N(C4CCC(=O)NC4=O)C7)C3)nc2)N1CC(F)F (stereo partly drawn) , ER (Homo sapiens (Human)), reported DC50 = 10 to 100 nM

Summary line: C[C@@H]1Cc2c([nH]c3ccccc23)[C@@H](c2c(F)cc(N3CC[C@@H](CN4CCN5c6ccc7c(c6OC[C@H]5C4)CN(C4CCC(=O)NC4=O)C7=O)C3)cc2F)N1CC(F)(F)CO (stereo partly drawn) , ER (Homo sapiens (Human)), reported DC50 = > 100 nM

Summary line: C[C@@H]1Cc2c([nH]c3ccccc23)[C@@H](c2cnc(N3CCC4(CC3)CC(CN3CCN5c6ccc7c(c6OC[C@H]5C3)CN(C3CCC(=O)NC3=O)C7=O)C4)nc2)N1CC(C)(C)F (stereo partly drawn) , ER (Homo sapiens (Human)), reported DC50 = < 10 nM

----------
molecular target: ER in T47D cells (Homo sapiens (Human), UniProt P03372); experiment: In-cell western (ICW) ER degradation assay in T47D cells (Compounds A1-A70); type: cell-based; settings: T47D, maximal ER degradation, T47D cells, 16 hrs treatment; read-out: T47D ICW Dmax (%)
Sequence (P03372 whole entry): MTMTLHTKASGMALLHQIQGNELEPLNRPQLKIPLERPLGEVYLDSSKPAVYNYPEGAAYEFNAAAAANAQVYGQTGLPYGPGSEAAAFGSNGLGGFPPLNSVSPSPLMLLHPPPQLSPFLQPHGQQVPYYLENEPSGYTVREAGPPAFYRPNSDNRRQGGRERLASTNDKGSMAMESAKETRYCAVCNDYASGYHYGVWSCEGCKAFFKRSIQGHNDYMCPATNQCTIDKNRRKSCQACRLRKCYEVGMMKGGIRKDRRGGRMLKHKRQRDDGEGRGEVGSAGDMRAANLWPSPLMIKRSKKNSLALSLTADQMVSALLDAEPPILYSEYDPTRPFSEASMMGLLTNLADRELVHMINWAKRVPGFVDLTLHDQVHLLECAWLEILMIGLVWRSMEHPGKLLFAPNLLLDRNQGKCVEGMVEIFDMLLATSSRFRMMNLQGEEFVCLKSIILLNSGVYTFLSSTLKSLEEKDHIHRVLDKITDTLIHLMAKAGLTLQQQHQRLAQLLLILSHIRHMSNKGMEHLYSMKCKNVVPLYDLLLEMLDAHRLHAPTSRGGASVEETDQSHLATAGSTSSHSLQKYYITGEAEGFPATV
Counter-ions that a name gives are not always drawn.
Measured Dmax accompanies every entry in the list below.

C[C@@H]1Cc2c([nH]c3ccccc23)[C@@H](c2cnc(N3CCC4(CC3)C[C@@H](CN3CCN5c6ccc(C(=O)N[C@H]7CCC(=O)NC7=O)nc6OC[C@H]5C3)CO4)nc2)N1CC(F)F [Compound A63]: 50 to 75%
COc1cc(N2CCC(CN3CCN4c5ccc6c(c5OC[C@H]4C3)CN([C@@H]3CCC(=O)NC3=O)C6=O)CC2)ccc1[C@@H]1c2[nH]c3ccccc3c2C[C@@H](C)N1CC(F)F [Compound A37]: > 75%
C[C@H]1Cc2c([nH]c3ccccc23)[C@H](c2ccc(N3CCC(CN4CCN5c6ccc7c(c6OC[C@@H]5C4)CN([C@@H]4CCC(=O)NC4=O)C7=O)CC3)cn2)N1CC(F)(F)F [Compound A62]: 25 to 50%

The recorded Dmax for entry COc1cc(N2CCC(CN3CCN(c4ccc(C(=O)N[C@H]5CCC(=O)NC5=O)nc4)CC3)CC2)ccc1[C@@H]1c2[nH]c3ccccc3c2C[C@@H](C)N1CC(F)F [Compound A43, formate] equals 50 to 75%

The recorded Dmax for entry C[C@H]1Cc2c([nH]c3ccccc23)[C@H](c2cnc(N3CCC4(CC3)C[C@H](CN3CCN5c6ccc7c(c6OC[C@@H]5C3)CN([C@@H]3CCC(=O)NC3=O)C7=O)CO4)nc2)N1CC(F)F [Compound A58] equals 50 to 75%

The recorded Dmax for entry COc1cc(N2CCC(CN3CCN4c5ccc(C(=O)NC6CCC(=O)NC6=O)nc5OC[C@H]4C3)CC2)ccc1[C@@H]1c2[nH]c3ccccc3c2C[C@@H](C)N1CC(F)F (stereo partly shown) [Compound A51, formate] equals > 75%

The recorded Dmax for entry COc1cc(N2CCC(CN3CCN(c4ccc(NC5CCC(=O)NC5=O)c(F)c4)CC3)CC2)ccc1[C@@H]1c2[nH]c3ccccc3c2C[C@@H](C)N1CC(F)F (stereo partly shown) [Compound A41] equals 25 to 50%

The recorded Dmax for entry COc1cc(N2CCC(CN3CCC(c4ccc(C(=O)NC5CCC(=O)NC5=O)nc4)CC3)CC2)ccc1[C@@H]1c2[nH]c3ccccc3c2C[C@@H](C)N1CC(F)F (stereo partly shown) [Compound A53] equals < 25%

The recorded Dmax for entry COc1cc(N2CCC(CN3CCN4c5cc6c(cc5OC[C@H]4C3)C(=O)N([C@@H]3CCC(=O)NC3=O)C6)CC2)ccc1[C@@H]1c2[nH]c3ccccc3c2C[C@@H](C)N1CC(F)F [Compound A48] equals > 75%

The recorded Dmax for entry COc1cc(N2CCC(CN3CCN4c5ccc(C(=O)NC6CCC(=O)NC6=O)nc5OC[C@H]4C3)CC2)ccc1[C@H]1c2[nH]c3ccccc3c2C[C@H](C)N1CC(F)F (stereo partly shown) [Compound A54] equals 50 to 75%
